experimentDescription: chemical genetic growth profiling, strain panel (AID 1159580);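 also: tested at 20 µM; growth read once vehicle control cultures reached saturation at 30 °C; lower values mean less growth of the strain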
conditionsUsed: S. cerevisiae deletion strains, growth OD, locus YLR262C, strain YPT6 (second series)
The whole screen tested about 5,500 compounds, of which about 2,000 (36%) were called active. Another 18% or so got no clear call; they are omitted. Rule as the data show it: active = normalized growth mostly below about 0.91 (no sharp cut-off); inconclusive = no clear call, values can overlap the other calls; inactive = mostly above about 0.92. Some of the results follow.
Bench note: report the call from yes for active, no for inactive

Per the records of this test, what outcome belongs to CC[C@H]1CN2CCc3cc(OC)c(OC)cc3C2C[C@@H]1CC1NCCc2cc(OC)c(OC)cc21 (stereo partly drawn) ?
no

Per the records of this test, what outcome belongs to "CC(=O)NO" ?
no

Per the records of this test, what outcome belongs to NC[C@H]1O[C@H](O[C@H]2C(O[C@@H]3O[C@H](CO)[C@@H](O)[C@H]3O)[C@@H](O)[C@H](N)C[C@@H]2N)[C@H](N)[C@@H](O)[C@@H]1O (stereo partly drawn) ?
no
